system: H1299; experiment: difference in mean normalized H2B-mRuby nuclear fluorescence intensity relative to DMSO control (normalized intensity difference (DMSO = 0)); higher = stronger increase in transgene reporter fluorescence; details: concentration: 2.5; 24 h
Is difference at least 0.04? Then met. If not, not met.

Exam item: Determine whether this molecule has difference no lower than 0.04: COc1cc(Nc2c(C#N)cnc3cc(OCCCN4CCN(C)CC4)c(OC)cc23)c(Cl)cc1Cl (concentration unit: uM)
Marked response: not met

Exam item: Determine whether this molecule has difference no lower than 0.04: O=c1[nH]cc(F)c(=O)[nH]1 (concentration unit: uM)
Marked response: not met

Exam item: Determine whether this molecule has difference no lower than 0.04: "C[C@@H]1C[C@H](N)C[C@H](c2ccncc2NC(=O)c2ccc(F)c(-c3c(F)cccc3F)n2)C1"
Marked response: met

Exam item: Determine whether this molecule has difference no lower than 0.04: O=C(c1cc(Cc2n[nH]c(=O)c3ccccc23)ccc1F)N1CCN(C(=O)C2CC2)CC1 (concentration unit: uM)
Marked response: not met

Exam item: Determine whether this molecule has difference no lower than 0.04: COc1cc([C@@H]2c3cc4c(cc3[C@@H](O[C@@H]3O[C@@H]5CO[C@@H](C)O[C@H]5[C@H](O)[C@H]3O)[C@H]3COC(=O)[C@H]23)OCO4)cc(OC)c1O (concentration unit: uM)
Marked response: met

Exam item: Determine whether this molecule has difference no lower than 0.04: Nc1ncn([C@@H]2O[C@H](CO)[C@@H](O)[C@H]2O)c(=O)n1 (concentration unit: uM)
Marked response: met

Exam item: Determine whether this molecule has difference no lower than 0.04: COc1cc2ncnc(Nc3ccc(F)c(Cl)c3)c2cc1OCCCN1CCOCC1 (concentration unit: uM)
Marked response: not met

Exam item: Determine whether this molecule has difference no lower than 0.04: CNC(=O)c1cc(Oc2ccc(NC(=O)Nc3ccc(Cl)c(C(F)(F)F)c3)cc2)ccn1 (concentration unit: uM)
Marked response: not met

Exam item: Determine whether this molecule has difference no lower than 0.04: C=CCn1c(=O)c2cnc(Nc3ccc(N4CCN(C)CC4)cc3)nc2n1-c1cccc(C(C)(C)O)n1 (concentration unit: uM)
Marked response: not met

Exam item: Determine whether this molecule has difference no lower than 0.04: CO[C@H]1C[C@@H]2CC[C@@H](C)[C@@](O)(O2)C(=O)C(=O)N2CCCC[C@H]2C(=O)O[C@H]([C@H](C)C[C@@H]2CC[C@@H](O)[C@H](OC)C2)CC(=O)[C@H](C)/C=C(\C)[C@@H](O)[C@@H](OC)C(=O)[C@H](C)C[C@H](C)/C=C/C=C/C=C/1C (concentration unit: nM)
Marked response: not met

====

Exercise: state measured difference for each of the molecules provided.
system: H1299; assay: difference in mean normalized H2B-mRuby nuclear fluorescence intensity relative to DMSO control (normalized intensity difference (DMSO = 0)); higher = stronger increase in transgene reporter fluorescence; details: concentration: 1000; 24 h
Note: the reply should be a number with no unit written.

Exam item: Could you share which difference value was measured for COc1cccc2c1C(=O)c1c(O)c3c(c(O)c1C2=O)C[C@@](O)(C(=O)CO)C[C@@H]3O[C@H]1C[C@H](N)[C@H](O)[C@H](C)O1 (concentration unit: nM) ?
Marked response: 0.0826

Exam item: Could you share which difference value was measured for COC(=O)c1ccc([C@H]2c3[nH]c4ccccc4c3C[C@H](C(=O)OC)N2C(=O)CCl)cc1 (concentration unit: nM) ?
Marked response: 0.121

Exam item: Could you share which difference value was measured for Cc1nc(Nc2ncc(C(=O)Nc3c(C)cccc3Cl)s2)cc(N2CCN(CCO)CC2)n1 (concentration unit: nM) ?
Marked response: 0.167

Exam item: Could you share which difference value was measured for COc1cc(Nc2ncc3c(n2)-c2ccc(Cl)cc2C(c2c(F)cccc2OC)=NC3)ccc1C(=O)O (concentration unit: nM) ?
Marked response: 0.136
